// data source = patent US20260285853A1

- Tested on: MYB mRNA
- assay_text: Gene panel canonical junction qPCR assay, decrease in CJ mRNA, Table 3
- Type: cell-based
- test_parameters: decrease in canonical junction (CJ) mRNA, gene panel qPCR, Table 3
observable: IC50

Give its IC50 value. Item: CCNC1CCN(c2cc(F)c(C(=O)Nc3cc4c(C)nc(C)cn4c3)c3nn(C)cc23)CC1 [Compound 344]
100 to 1000 nM

Give its IC50 value. Item: COc1cc2nn(C)cc2cc1NC(=O)c1c(F)cc(N2[C@@H]3CC[C@H]2C[C@@H](NC2CC2)C3)c2cn(C)nc12 [Compound 428]
1000 to 10000 nM

Others:
Give its IC50 value. Item: Cc1cn2cc(NC(=O)c3ccc(N4CC[C@H](NCC(C)(C)O)C4)c4cn(C)nc34)cc(F)c2n1 [Compound 132]
100 to 1000 nM

Give its IC50 value. Item: COc1cc2nn(C)cc2cc1NC(=O)c1ccc(N2CCC3(CCNC3)C2)c2cn(C)nc12 (stereo not shown) [Compound 513]
1000 to 10000 nM

Give its IC50 value. Item: Cc1cn2cc(NC(=O)c3c(F)cc(N4CCC(N(C)C)CC4)c4cn(C)nc34)nc2c(C)n1 [Compound 356]
100 to 1000 nM

Give its IC50 value. Item: Cc1cn2cc(NC(=O)c3ccc(N4CCC(NC5CC5)CC4)c4cn(C)nc34)nc2c(-c2cnsc2)n1 [Compound 492]
> 10000 nM

Give its IC50 value. Item: COc1cc2nn(C)cc2cc1C#Cc1ccc(N2CCC(NC3CC3)CC2)c2cn(C)nc12 [Compound 437]
> 10000 nM

* * *

- Test system: MYB mRNA
- assay_text: Gene panel canonical junction qPCR assay, decrease in CJ mRNA, Table 3
- Type: cell-based
- test_parameters: decrease in canonical junction (CJ) mRNA, gene panel qPCR, Table 3
pIC50: −log10 of the molar value.
observable: pIC50

For the record Cc1c2cc(NC(=O)c3c(F)cc(N4CCC(NC5CC5)CC4)c4cn(C)nc34)cc(F)c2nn1C , what value of pIC50 is listed for MYB mRNA?
< 5.00

For the record CCNC1CCN(c2ccc(C(=O)Nc3cc(OC)c4nc(C)cn4c3)c3nn(C)cc23)CC1 , what value of pIC50 is listed for MYB mRNA?
6.00 to 7.00

For the record Cc1cn2cc(NC(=O)c3c(F)cc(N4CCC(NC5CC5)CC4)c4cn(C)nc34)cc(Oc3cn[nH]c3)c2n1 [Compound 410, 2,2,2-trifluoroacetate] , what value of pIC50 is listed for MYB mRNA?
< 5.00

For the record Cc1cn2cc(NC(=O)c3ccc(N4CC[C@H](NCCO)C4)c4cn(C)nc34)cc(F)c2n1 , what value of pIC50 is listed for MYB mRNA?
6.00 to 7.00

Others:
For the record COc1cc(N2CCNCC2)c2cn(C)nc2c1C(=O)Nc1cc(F)c2nc(C)cn2c1 , what value of pIC50 is listed for MYB mRNA?
< 5.00

For the record Cc1cn2cc(NC(=O)c3ccc(N4CC[C@H]5CNCC[C@H]54)c4cn(C)nc34)nc2c(C)n1 (stereo in doubt) , what value of pIC50 is listed for MYB mRNA?
6.00 to 7.00

For the record CCNC1CCN(c2ccc(C(=O)Nc3cc(-n4ccc(=O)cc4)c4nc(C)cn4c3)c3nn(C)cc23)CC1 , what value of pIC50 is listed for MYB mRNA?
5.00 to 6.00
